Data provenance is ChEMBL document CHEMBL3856233.

This section presents compounds with their documented fraction unbound at 6 h, 1 µM values.
# experiment.notes: Protein binding in rat plasma at 1 uM after 6 hrs by LC/MS/MS based equilibrium dialysis method
# Format: ADME, cell-free
# test.settings: read-out: PPB (converted)
observation.type: fraction unbound at 6 h, 1 µM

>>> numeric_result("C[C@@H]1c2ncn(-c3ccc(F)cn3)c2CCN1C(=O)c1cccc(C(F)(F)F)c1Cl")
0.051
>>> numeric_result("C[C@@H]1c2ncn(-c3ncc(F)cn3)c2CCN1C(=O)c1cccc(C(F)(F)F)c1Cl")
0.038
>>> numeric_result("C[C@@H]1c2ncn(-c3ccccn3)c2CCN1C(=O)c1cccc(C(F)(F)F)c1Cl")
0.026
>>> numeric_result("C[C@@H]1c2ncn(-c3ccc(F)cc3)c2CCN1C(=O)c1cccc(C(F)(F)F)c1Cl")
0.025
